- Test system: PAD
- ASSAY_REMARKS: qHTS profiling for inhibitors of Plasmodium falciparum proliferation (AID 504749); also: nearly all actives have a fitted effect of over 60% in size
- TEST_CONDITIONS: P. falciparum in erythrocytes, SYBR Green DNA, 72 h; series mostly up to 28.7 µM
Results filed as inconclusive are left out. The source made the active and inactive calls. Calls follow the shape of the dose curve; as a rule, active = well fitted inhibition curve with a large enough effect; inconclusive = small, poorly fitted or top-dose-only effect; inactive = flat fitted curve, though single readings scatter.
PROPERTY: outcome

Some molecules with known outcome results, for comparison:
NCCNCCNCCNCCN : inactive
CCOC(=O)[C@H](CCc1ccccc1)N[C@@H](C)C(=O)N1C(=O)N(C)C[C@H]1C(=O)O : inactive
CC(=O)Oc1ccc(C2(c3ccc(OC(C)=O)cc3)C(=O)Nc3ccccc32)cc1 : inactive
CC1=C(CC(=O)O)c2cc(F)ccc2/C1=C\c1ccc(S(C)=O)cc1 (configuration not stated) : inactive
[O-][n+]1cccc(CO)c1 : inactive
CC[C@@]1(c2ccccc2)NC(=O)N(C)C1=O : inactive
O=C(O)c1ccccc1-c1ccc(C(F)(F)F)cc1 : inactive
COC(=O)C1=C(C)NC(C)=C(C(=O)OC)C1c1ccccc1[N+](=O)[O-] : inactive
C[C@](N)(Cc1ccc(O)cc1)C(=O)O : inactive
NS(=O)(=O)c1cc2c(cc1Cl)NC(CSCc1ccccc1)=NS2(=O)=O : inactive

// query What value of outcome on PAD does `O=C1NS(=O)(=O)c2ccccc21` have?
// result inactive

// query // same read-out, input: `CCn1cc(C(=O)O)c(=O)c2cnc(N3CCNCC3)nc21`
// result inactive
